Reported pIC50 by item:
- Target: Neutrophil elastase (Homo sapiens)
- Sequence (P08246 whole entry): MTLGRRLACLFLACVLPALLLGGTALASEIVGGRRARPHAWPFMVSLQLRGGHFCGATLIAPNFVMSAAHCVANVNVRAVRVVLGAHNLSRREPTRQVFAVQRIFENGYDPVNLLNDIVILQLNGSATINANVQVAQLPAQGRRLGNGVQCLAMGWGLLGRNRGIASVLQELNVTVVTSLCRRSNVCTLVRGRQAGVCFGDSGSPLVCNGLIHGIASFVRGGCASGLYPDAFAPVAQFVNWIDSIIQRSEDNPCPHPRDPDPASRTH
- Protocol Description: Inhibition of human neutrophil elastase using N-Methoxysuccinyl-Ala-Ala-Pro-Val-p-nitroanilid as substrate measured after 1 hr
Please report pIC50 as the negative decimal logarithm of the molar concentration, giving only the number.

>>> value("O=c1cc(-c2ccc(O)c(-c3c(O)cc4oc(-c5ccc(O)cc5)cc(=O)c4c3O)c2)oc2cc(O)cc(O)c12 [ROBUSTAFLAVONE]")
5.88

Consider the record given below.
Incoming: Return pIC50 for the following molecule: O=c1cc(-c2ccc(O)c(-c3c(O)cc(O)c4c(=O)cc(-c5ccc(O)cc5)oc34)c2)oc2cc(O)cc(O)c12 [AMENTOFLAVONE]
Outgoing: 5.90

Hello, the source for this data is ChEMBL document CHEMBL4138279, in case you need it.
